The reported measurements were obtained from patent US7635572B2.

- System Under Test: plurality of kinases (Table 5) (Homo sapiens, UniProt Q9Y6R4)
- Sequence (Q9Y6R4 whole entry): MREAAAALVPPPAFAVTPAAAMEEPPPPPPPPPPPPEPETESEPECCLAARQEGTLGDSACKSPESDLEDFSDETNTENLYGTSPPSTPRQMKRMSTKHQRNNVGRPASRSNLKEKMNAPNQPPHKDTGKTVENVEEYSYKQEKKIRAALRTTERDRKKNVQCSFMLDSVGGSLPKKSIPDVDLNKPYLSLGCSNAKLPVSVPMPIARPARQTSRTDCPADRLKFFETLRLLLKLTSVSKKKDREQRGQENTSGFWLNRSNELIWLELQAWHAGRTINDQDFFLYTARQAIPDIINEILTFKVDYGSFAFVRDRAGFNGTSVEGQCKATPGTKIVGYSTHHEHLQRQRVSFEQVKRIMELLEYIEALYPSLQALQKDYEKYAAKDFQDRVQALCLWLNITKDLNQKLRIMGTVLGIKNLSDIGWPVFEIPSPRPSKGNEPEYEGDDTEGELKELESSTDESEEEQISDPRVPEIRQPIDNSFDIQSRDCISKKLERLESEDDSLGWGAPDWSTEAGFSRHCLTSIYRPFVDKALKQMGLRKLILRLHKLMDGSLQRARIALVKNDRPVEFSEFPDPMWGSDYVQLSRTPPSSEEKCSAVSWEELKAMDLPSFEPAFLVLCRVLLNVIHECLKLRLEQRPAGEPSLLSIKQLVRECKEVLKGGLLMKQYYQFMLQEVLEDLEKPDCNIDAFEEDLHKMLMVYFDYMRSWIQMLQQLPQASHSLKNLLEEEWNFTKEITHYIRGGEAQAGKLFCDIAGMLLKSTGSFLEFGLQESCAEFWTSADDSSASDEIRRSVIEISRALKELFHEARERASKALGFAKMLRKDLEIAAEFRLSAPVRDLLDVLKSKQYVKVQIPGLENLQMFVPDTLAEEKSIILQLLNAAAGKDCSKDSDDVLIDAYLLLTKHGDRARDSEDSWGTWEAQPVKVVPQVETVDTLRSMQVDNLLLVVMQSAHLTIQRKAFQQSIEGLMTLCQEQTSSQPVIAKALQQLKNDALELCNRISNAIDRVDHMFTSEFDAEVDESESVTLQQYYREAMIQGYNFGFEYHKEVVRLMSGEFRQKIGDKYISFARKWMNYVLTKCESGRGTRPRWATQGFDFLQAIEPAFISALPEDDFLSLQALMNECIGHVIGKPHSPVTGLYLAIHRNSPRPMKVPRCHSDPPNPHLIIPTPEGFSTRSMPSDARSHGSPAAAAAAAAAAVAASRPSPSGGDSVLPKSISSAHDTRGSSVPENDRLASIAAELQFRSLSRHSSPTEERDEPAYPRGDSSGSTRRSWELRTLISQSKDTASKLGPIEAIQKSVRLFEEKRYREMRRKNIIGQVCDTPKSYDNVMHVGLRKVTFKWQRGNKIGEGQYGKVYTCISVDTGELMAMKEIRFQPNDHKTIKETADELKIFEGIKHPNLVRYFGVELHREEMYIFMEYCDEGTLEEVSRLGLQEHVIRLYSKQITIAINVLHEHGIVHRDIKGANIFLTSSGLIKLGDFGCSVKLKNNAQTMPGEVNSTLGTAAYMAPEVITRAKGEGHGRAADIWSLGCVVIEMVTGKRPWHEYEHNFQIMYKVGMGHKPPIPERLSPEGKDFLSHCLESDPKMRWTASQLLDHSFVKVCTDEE
- Assay Method Text: Further analysis of a plurality of inhibitors and a plurality of kinases on microarray (Example IX, Table 5);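 also: inhibition of each kinase by the inhibitors is given as a qualitative level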;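 also: level 0 no or unclear inhibition to Level 2 substantial inhibition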
- Type: biochemical
- Cond: plate E7; inhibitor 100 uM
Quantity: Inhibition level, MAP3K4
The reply should be a number, written without any unit.

Reference set (7 entries):
Cn1cc(C2=C(c3cn(CCCSC(=N)N)c4ccccc34)C(=O)NC2=O)c2ccccc21 | 2
O=c1c(O)c(-c2ccc(O)c(O)c2)oc2cc(O)cc(O)c12 | 0
CC(=O)c1c(O)c(C)c(O)c(Cc2c(O)c3c(c(C(=O)/C=C/c4ccccc4)c2O)OC(C)(C)C=C3)c1O | 1
O=c1c(-c2ccc(O)cc2)coc2cc(O)cc(O)c12 | 1
COc1cc2ncnc(Nc3cccc(Cl)c3)c2cc1OC | 1
N#C/C(=C/c1ccc(O)c(O)c1)C(=O)NCc1ccccc1 | 2
CC(C)(C)n1nc(-c2ccc(Cl)cc2)c2c(N)ncnc21 | 2

Now consider the entry below.
Requested read-out: Inhibition level, MAP3K4. Entry: O=S(=O)(NCCNC/C=C/c1ccc(Br)cc1)c1cccc2cnccc12
1
